# credit: the supplement of paper PMC10338343

tested on: MILI (PIWIL2) piRISC loaded with L1MC piRNA (26 nt); assay: pre-steady-state target cleavage rate (min^-1); guide: L1MC piRNA 5'p-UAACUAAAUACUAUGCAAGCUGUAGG; higher = faster piRNA-guided slicing of the target; conditions: auxiliary factor: 500 nM mouse GTSF1;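 note: 1 nM active piRISC with 0.1 nM target library at 33 °C single turnover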
// reported pre-steady-state target cleavage rate per item

Could you tell me which pre-steady-state target cleavage rate is on file for UCCUGGAUGUCGAACGAUAGUAAUAAGUUA ?
< 0.0001

Could you tell me which pre-steady-state target cleavage rate is on file for UCCUGGAUGUCGUUGCAUAGUAUUCUAGUUA ?
0.18

====

test system: EfPiwi piRISC loaded with piRNA #1 (26 nt); test: pre-steady-state target cleavage rate (min^-1); auxiliary factor: 500 nM Ephydatia muelleri Gtsf1; guide: piRNA #1 5'p-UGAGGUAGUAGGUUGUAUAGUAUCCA; higher = faster piRNA-guided slicing of the target
// reported pre-steady-state target cleavage rate per item

Example entries begin here.
GGAGAGGACACUAUACAACCUACUACCUCA    0.0224
GGAGACGAUACUAUACAACCUUACUACCUCA    0.00805
GGAGUGGAUACUAUACAACGUACUUCCUCA    0.00364
GGAGUGGAUACUAUGACAACCUACUACCUCA    0.0114
GGAGUCGGAUACUAUACAACCUACUACCUCA    0.0621
GGAGACCAUACUAUACAAUCCUACUACCUCA    0.00501

Could you tell me which pre-steady-state target cleavage rate is on file for GGAGUGGAUUCUAUACAACCUUCUACCUCA ?
0.00415

Could you tell me which pre-steady-state target cleavage rate is on file for GGAGACCUAUCGAUACAACCUACUACCUCA ?
0.0102

Could you tell me which pre-steady-state target cleavage rate is on file for GGAGACGAUACUAUAGAACCUACUACCUCA ?
0.00433

Could you tell me which pre-steady-state target cleavage rate is on file for GGAGAGGAUACUAUACAACCUACUCACCUCA ?
0.00339

Could you tell me which pre-steady-state target cleavage rate is on file for GGAGUGGAUACUAUACAACGUACUACGUCA ?
0.0036

Could you tell me which pre-steady-state target cleavage rate is on file for GGAGACCUUACUAUACAACCUACUACCCA ?
0.00518

Could you tell me which pre-steady-state target cleavage rate is on file for GGAGAGGAUACUAUAGAACCUACUACCUCA ?
0.00475

====

test system: MILI (PIWIL2) piRISC loaded with L1MC piRNA (26 nt); assay: pre-steady-state target cleavage rate (min^-1); guide: L1MC piRNA 5'p-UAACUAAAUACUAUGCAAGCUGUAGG; MIWI and MILI are mouse PIWI proteins and EfPiwi is from a freshwater sponge; tags in brackets are library labels; higher = faster piRNA-guided slicing of the target; conditions: auxiliary factor: 500 nM mouse GTSF1;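 note: 1 nM active piRISC with 0.1 nM target library at 33 °C single turnover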
metric: pre-steady-state target cleavage rate
// keep it numeric: no unit symbol after the value

Example entries begin here.
UCCUGGAUGUGCUUGCAUUGAAUUUAGUUA    0.00465
UCCUGGAUGAGCUUGCAUAGUAAUUUAGUUA    0.0721
UCCUGGAUGUCCUUGCAUAGUAUUUCAGUUA    0.0665
UCCUGGAUGUGCAAGCAUAGUAUUUAGUUA    0.055
UCCUGGAACAGCUUGCAUUGUAUUAAGUUA    0.163
UCCUCCUACAGCUUGCGUAGUAUUUAGUUA    0.28

Next up:
So what pre-steady-state target cleavage rate did UCCUGGAUCAGCUUGCAUUGAAUUUAGUUA get with MILI (PIWIL2) piRISC loaded with L1MC piRNA (26 nt)?;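 note: 1 nM active piRISC with 0.1 nM target library at 33 °C single turnover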
0.0248
